Tested on: Pseudomonas aeruginosa
Assay: Antibacterial activity against Pseudomonas aeruginosa PAO397 [PAO1 d(mexAB-oprM) d(mexCD-oprJ) d(mexEF-oprN) d(mexJKL) d(mexXY) d(opmH)] (CO-ADD:GN_211); MIC in CAMBH media using NBS plates, by OD(600)
Format: functional
Conditions: Concentration 300 ug.mL-1, ASSAY_TEST Inhibition of Bacterial Growth, detection method Absorption (OD600), MEDIA CAMHB, plate type 384well, CORNING #3640, time 18 hr
In all, about 18,000 compounds went through this assay and fewer than 10 showed an effect of 50% or more. A selection follows.
Inhibition by entry:
Write the value in % as a bare number.

compound	readout-number
CC(C)C(=O)NCc1ccnc(-n2cccn2)c1	10.08
CN1CCCC(CCN)C1 (configuration not stated)	8.27
CC(C)c1cccc(S(=O)(=O)N2CCCC2CN)c1 (configuration not stated)	-46.42

Asked: Request: Inhibition, test system Pseudomonas aeruginosa, entry CCc1nnc(NCCS(=O)(=O)N(C)C)o1
Given back: -4.82

Asked: Field: Inhibition (Pseudomonas aeruginosa). Entry: CC(=O)NCc1cn2c(C)cccc2n1
Given back: -5.3

Asked: Param readout = Inhibition; param system = Pseudomonas aeruginosa; param query = Cc1cc(NC(=O)CCn2ccnc2)no1 ; response: value
Given back: 1.69

Asked: Entry CCOCC(=O)N1C[C@H](CO)C[C@H](CN2CCCC2)C1 , system Pseudomonas aeruginosa: what Inhibition was measured?
Given back: -0.69
